As a worked illustration, we turn to pKi data collected for Carbonic anhydrase 2 (Homo sapiens).
The read-out pKi is expressed as -log10 of concentration in moles per litre.

What pKi value was documented for this compound, O=[N+]([O-])c1ccc(S(=O)(=O)NCC(F)CCl)cc1 (stereo not given) ?
7.59

What value of pKi has been reported for the following compound? CC(F)CNCCCCN (stereo not given)
4.20

I have this compound here, CC(F)CNS(=O)(=O)c1ccc([N+](=O)[O-])cc1 (stereo not given) , and I need its recorded pKi.
5.62

Given the entry CC(F)CN(CCCN)S(=O)(=O)c1ccc([N+](=O)[O-])cc1 (stereo not given) , report its measured pKi.
6.14

Returns the measured pKi for the input compound. Input: O=C1c2ccccc2C(=O)N1CC(F)CNS(=O)(=O)c1ccc([N+](=O)[O-])cc1 (stereo not given)
7.12

For the compound CC(F)CNCCCN1C(=O)c2ccccc2C1=O (stereo not given) , what pKi is on record?
5.37

Need pKi, item CC(F)CN(CCCN1C(=O)c2ccccc2C1=O)S(=O)(=O)c1ccc([N+](=O)[O-])cc1 (stereo not given)
4.11

Which pKi reading was recorded for the compound CC(F)CNCCCN (stereo not given) ?
4.43

====

target: Carbonic anhydrase 4 (Homo sapiens, UniProt P22748)
Sequence (P22748 whole entry): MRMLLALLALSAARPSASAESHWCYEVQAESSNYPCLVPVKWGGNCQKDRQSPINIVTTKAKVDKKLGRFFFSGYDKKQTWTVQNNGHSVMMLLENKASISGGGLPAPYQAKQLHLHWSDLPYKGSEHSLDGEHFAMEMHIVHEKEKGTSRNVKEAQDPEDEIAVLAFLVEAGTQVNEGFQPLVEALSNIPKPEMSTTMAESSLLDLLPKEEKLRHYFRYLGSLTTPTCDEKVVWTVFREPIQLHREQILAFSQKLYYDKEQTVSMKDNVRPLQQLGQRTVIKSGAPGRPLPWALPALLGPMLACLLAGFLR
Result type: pKi
Conceptually, pKi converts a concentration in mol/L into minus its log10.

Consider the molecule shown here: CC(F)CNCCCCN (stereo unspecified) What is its recorded pKi?
7.55

I'd like to know its pKi. The molecule in question is CC(F)CNCCCN (stereo unspecified)
7.47

Need pKi, item CC(F)CNS(=O)(=O)c1ccc([N+](=O)[O-])cc1 (stereo unspecified)
7.15

====

molecular target: Carbonic anhydrase 12 (Homo sapiens, UniProt O43570)
Sequence (O43570 whole entry): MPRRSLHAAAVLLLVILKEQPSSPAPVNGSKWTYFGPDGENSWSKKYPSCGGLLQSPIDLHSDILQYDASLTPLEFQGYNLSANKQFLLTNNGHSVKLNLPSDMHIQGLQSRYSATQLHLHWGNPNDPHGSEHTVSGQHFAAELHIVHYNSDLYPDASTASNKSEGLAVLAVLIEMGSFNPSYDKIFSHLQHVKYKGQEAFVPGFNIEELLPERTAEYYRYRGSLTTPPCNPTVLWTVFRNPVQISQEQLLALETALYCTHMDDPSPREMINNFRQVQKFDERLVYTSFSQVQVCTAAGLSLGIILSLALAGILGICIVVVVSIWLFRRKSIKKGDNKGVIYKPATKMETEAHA
Result type: pKi
Keep it numeric: pKi is minus log10 of the concentration in mol/L.

I have this compound here, CN(CC(F)CN)S(=O)(=O)c1ccc([N+](=O)[O-])cc1 (configuration not stated) , and I need its recorded pKi.
5.44

// returns reported pKi for input CC(F)CN(CCCCN1C(=O)c2ccccc2C1=O)S(=O)(=O)c1ccc([N+](=O)[O-])cc1 (configuration not stated)
6.19

Fill blank: measured pKi of the compound CCCNCCCN is ____.
4.28

Fill in the blank: the reported pKi of CC(F)CNCCCCN1C(=O)c2ccccc2C1=O (configuration not stated) is ____.
8.22

What value of measured pKi is listed for CC(F)CN(CCCN1C(=O)c2ccccc2C1=O)S(=O)(=O)c1ccc([N+](=O)[O-])cc1 (configuration not stated) ?
5.15

Report pKi for CC(F)CNS(=O)(=O)c1ccc([N+](=O)[O-])cc1 (configuration not stated) please.
5.38

====

target: Carbonic anhydrase 9 (Homo sapiens)
Rule for this label: met means Ki is less than 2 µM; not met means Ki is at least 2 µM.

For this compound, is Ki lower than 2 µM? CC(F)(F)CNCCCN1C(=O)c2ccccc2C1=O
not met

Quick check: Ki of CC(F)CNCCCCN (centres undefined) under 2 µM?
met

Could you please tell me whether Ki recorded for CC(F)CN(CCCN1C(=O)c2ccccc2C1=O)S(=O)(=O)c1ccc([N+](=O)[O-])cc1 (centres undefined) is less than 2 µM?
not met

Strictly below 2 µM: is that where Ki of CN(CC(F)CN)S(=O)(=O)c1ccc([N+](=O)[O-])cc1 (centres undefined) sits?
not met

Check if Ki falls below 2 µM for O=C1c2ccccc2C(=O)N1CC(F)CNS(=O)(=O)c1ccc([N+](=O)[O-])cc1 (centres undefined) .
not met

Here's an entry: CC(F)CNS(=O)(=O)c1ccc([N+](=O)[O-])cc1 (centres undefined) . Is its Ki below 2 µM?
not met

Ki under 2 µM? Item: CCCNCCCCN
not met

Lab note: confirm whether the reported Ki for this compound is below 2 µM, equality not counting. compound: CC(F)CNCCCN (centres undefined)
met

Please indicate whether the reported Ki of CC(F)CN(CCCCN1C(=O)c2ccccc2C1=O)S(=O)(=O)c1ccc([N+](=O)[O-])cc1 (centres undefined) is strictly below 2 µM.
not met
